Provide the recorded log10 of Ki for the entries that follow.
targetSystem: T1, human glucagon receptor (human, UniProt P47871 26-477)
T1 construct: whole, on cells; also called hGcgR; GcgR
T1 sequence (P47871 26-477): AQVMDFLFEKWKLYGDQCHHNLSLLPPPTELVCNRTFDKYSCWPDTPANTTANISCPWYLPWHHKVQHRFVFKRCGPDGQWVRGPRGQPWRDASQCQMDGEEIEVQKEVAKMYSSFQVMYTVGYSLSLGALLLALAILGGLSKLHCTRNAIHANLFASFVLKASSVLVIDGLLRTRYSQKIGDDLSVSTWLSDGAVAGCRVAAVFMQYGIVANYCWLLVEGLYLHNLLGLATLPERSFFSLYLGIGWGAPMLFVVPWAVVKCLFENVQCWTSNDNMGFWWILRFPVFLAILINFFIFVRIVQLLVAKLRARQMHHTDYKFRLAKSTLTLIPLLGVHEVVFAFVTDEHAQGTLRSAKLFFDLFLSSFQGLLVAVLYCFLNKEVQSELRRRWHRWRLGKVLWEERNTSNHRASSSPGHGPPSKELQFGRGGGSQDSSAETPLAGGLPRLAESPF
methodSummary: [125I]-Gcg competition SPA, hGcgR membranes
// do not treat as linear: log10 of Ki, unit nM

A selection of reference data follows.
# binder, metricName, recordedMeasurement
rows = [
    ("YXEGTXTSDYSIXLDHKAQXEFIXYLIEGGPSSGAPPPS (Aib2; αMeF(2F)6; αMeL13; K17((2-[2-(2-Amino-ethoxy)-ethoxy]-acetyl)2-(γ-Glu)-CO-(CH2)18-CO2H); Aib20; D-Glu24; C-terminal NH2) [Example 230]", "log10 of Ki", 2.69),
    ("YXEGTXTSDYSIXLDKKAQXEFIXYLIEGGPSSG (Aib2; αMeF6; αMeL13; K17((2-[2-(2-Amino-ethoxy)-ethoxy]-acetyl)2-(γ-Glu)-CO-(CH2)18-CO2H); Aib20; D-Glu24; C-terminal NH2) [Example 228]", "log10 of Ki", 2.26),
    ("XXEGTXTSDYSIXLDKKAQXAFIEYLIEGGPSSGAPPPS (D-Tyr1; Aib2; αMeF(2F)6; αMeL13; K17((2-[2-(2-Amino-ethoxy)-ethoxy]-acetyl)2-(γ-Glu)-CO-(CH2)18-CO2H); Aib20; C-terminal NH2) [Example 336]", "log10 of Ki", 1.23),
    ("YXEGTXTSDYSILLDKKAQXEFIEYLIEGGPSSG (Aib2; αMeF6; K17((2-[2-(2-Amino-ethoxy)-ethoxy]-acetyl)2-(γ-Glu)-CO-(CH2)16-CO2H); Aib20; C-terminal NH2) [Example 308]", "log10 of Ki", 1.97),
]

Hello, I would appreciate it if you could give log10 of Ki for each entry below.
1. YXEGTFTSDYSILLDKKAQHAFIEYLIEGGPSSGAPPPS (Aib2; K17((2-[2-(2-Amino-ethoxy)-ethoxy]-acetyl)2-(γ-Glu)-CO-(CH2)18-CO2H); C-terminal NH2) [Example 255]
2. YXEGTXTSDYSILLDKKAQXAFIEYLIEGGPSSGAPPPS (Aib2; αMeF(2F)6; K17((2-[2-(2-Amino-ethoxy)-ethoxy]-acetyl)2-(γ-Glu)-CO-(CH2)18-CO2H); Aib20; C-terminal NH2) [Example 325]

Reply:
[2.41, 1.11]

Where these numbers come from: patent US20200024322A1
